System: spontaneous hypertensive rats
METHOD NOTES: Antihypertensive activity by oral administration to spontaneous hypertensive rats
Type: in vivo, rat
ASSAY SETUP: Rattus norvegicus; dose 3 mg/kg, oral, spontaneous hypertensive rats; read-out: Antihypertensive Activity % Blood Pressure Change
Where a name gives a salt, the structure may show the parent alone.
MEASURE NAME: change in vivo at 3 mg/kg (%)
Your answer is read as %, so omit the unit and give the number.

Observe how each entry below is paired with its result.
[
  {
    "COMPOUND": "COc1cc2nc(N3CCN(C(=O)c4conc4C)CC3)nc(N)c2cc1OC.Cl [Example 5, Hydrochloride]",
    "TARGET OF ASSAY": "spontaneous hypertensive rats",
    "MEASURE NAME": "change in vivo at 3 mg/kg",
    "READING UNIT": "%",
    "NUMERIC VALUE": -29
  },
  {
    "COMPOUND": "COc1cc2nc(N3CCN(C(=O)c4coc(C)n4)CC3)nc(N)c2cc1OC.Cl [Example 8, Hydrochloride]",
    "TARGET OF ASSAY": "spontaneous hypertensive rats",
    "MEASURE NAME": "change in vivo at 3 mg/kg",
    "READING UNIT": "%",
    "NUMERIC VALUE": -31
  },
  {
    "COMPOUND": "COc1cc2nc(N3CCN(C(=O)c4cnc(C)s4)CC3)nc(N)c2cc1OC [Example 15, Hydrochloride]",
    "TARGET OF ASSAY": "spontaneous hypertensive rats",
    "MEASURE NAME": "change in vivo at 3 mg/kg",
    "READING UNIT": "%",
    "NUMERIC VALUE": -25
  },
  {
    "COMPOUND": "COc1cc2nc(N3CCN(C(=O)c4cnoc4)CC3)nc(N)c2cc1OC.Cl [Example 3, Hydrochloride]",
    "TARGET OF ASSAY": "spontaneous hypertensive rats",
    "MEASURE NAME": "change in vivo at 3 mg/kg",
    "READING UNIT": "%",
    "NUMERIC VALUE": -23
  },
  {
    "COMPOUND": "COc1cc2nc(N3CCN(C(=O)c4scnc4C)CC3)nc(N)c2cc1OC.Cl [Example 16, Hydrochloride]",
    "TARGET OF ASSAY": "spontaneous hypertensive rats",
    "MEASURE NAME": "change in vivo at 3 mg/kg",
    "READING UNIT": "%",
    "NUMERIC VALUE": -22
  }
]

Problem: # input compound: COc1cc2nc(N3CCN(C(=O)c4cnsc4)CC3)nc(N)c2cc1OC.Cl [Example 10, Hydrochloride] ; wanted: its change in vivo at 3 mg/kg
Result: -23

Problem: # input compound: COc1cc2nc(N3CCN(C(=O)c4cncs4)CC3)nc(N)c2cc1OC.Cl [Example 14, Hydrochloride] ; wanted: its change in vivo at 3 mg/kg
Result: -22

* * *

Tested on: spontaneous hypertensive rats
METHOD NOTES: Antihypertensive activity by oral administration to spontaneous hypertensive rats
Type: in vivo, rat
ASSAY SETUP: Rattus norvegicus; dose 10 mg/kg, oral, spontaneous hypertensive rats; read-out: Antihypertensive Activity % Blood Pressure Change
Counter-ions that a name gives are not always drawn.
Mark Satisfied only for change in vivo at 10 mg/kg values smaller than -30%; exact matches and larger values are Not satisfied.

Illustrative cases are given below, each with its answer.
[
  {
    "COMPOUND": "COc1cc2nc(N3CCN(C(=O)c4csc(C)n4)CC3)nc(N)c2cc1OC [Example 13, Hydrochloride]",
    "CLASS LABEL": "Not satisfied"
  },
  {
    "COMPOUND": "COc1cc2nc(N3CCN(C(=O)c4ocnc4C)CC3)nc(N)c2cc1OC.Cl [Example 9, Hydrochloride]",
    "CLASS LABEL": "Satisfied"
  },
  {
    "COMPOUND": "COc1cc2nc(N3CCN(C(=O)c4cocn4)CC3)nc(N)c2cc1OC.Cl [Example 7, Hydrochloride]",
    "CLASS LABEL": "Satisfied"
  },
  {
    "COMPOUND": "COc1cc2nc(N3CCN(C(=O)c4nccs4)CC3)nc(N)c2cc1OC [Example 11, Hydrochloride]",
    "CLASS LABEL": "Satisfied"
  },
  {
    "COMPOUND": "COc1cc2nc(N3CCN(C(=O)c4scnc4C)CC3)nc(N)c2cc1OC.Cl [Example 16, Hydrochloride]",
    "CLASS LABEL": "Not satisfied"
  }
]

Problem: In plain terms, does COc1cc2nc(N3CCN(C(=O)c4cc(C)on4)CC3)nc(N)c2cc1OC.Cl [Example 4, Hydrochloride] come in under -30% for change in vivo at 10 mg/kg?
Result: Satisfied

Problem: In plain terms, does COc1cc2nc(N3CCN(C(=O)c4cnoc4)CC3)nc(N)c2cc1OC.Cl [Example 3, Hydrochloride] come in under -30% for change in vivo at 10 mg/kg?
Result: Satisfied

Problem: In plain terms, does COc1cc2nc(N3CCN(C(=O)c4ccon4)CC3)nc(N)c2cc1OC [Example 2, Hydrochloride] come in under -30% for change in vivo at 10 mg/kg?
Result: Satisfied

Problem: In plain terms, does COc1cc2nc(N3CCN(C(=O)c4cnsc4)CC3)nc(N)c2cc1OC.Cl [Example 10, Hydrochloride] come in under -30% for change in vivo at 10 mg/kg?
Result: Not satisfied

* * *

TARGET OF ASSAY: α-adrenergic receptor (Rattus norvegicus, UniProt P43140)
Construct: Seminal vesicles were removed and transfered to a shallow dish containing modified Tyrode's solution; from tissue; host or cells: isolated seminal vesicle of male Long Evans rats
Sequence (P43140 whole entry): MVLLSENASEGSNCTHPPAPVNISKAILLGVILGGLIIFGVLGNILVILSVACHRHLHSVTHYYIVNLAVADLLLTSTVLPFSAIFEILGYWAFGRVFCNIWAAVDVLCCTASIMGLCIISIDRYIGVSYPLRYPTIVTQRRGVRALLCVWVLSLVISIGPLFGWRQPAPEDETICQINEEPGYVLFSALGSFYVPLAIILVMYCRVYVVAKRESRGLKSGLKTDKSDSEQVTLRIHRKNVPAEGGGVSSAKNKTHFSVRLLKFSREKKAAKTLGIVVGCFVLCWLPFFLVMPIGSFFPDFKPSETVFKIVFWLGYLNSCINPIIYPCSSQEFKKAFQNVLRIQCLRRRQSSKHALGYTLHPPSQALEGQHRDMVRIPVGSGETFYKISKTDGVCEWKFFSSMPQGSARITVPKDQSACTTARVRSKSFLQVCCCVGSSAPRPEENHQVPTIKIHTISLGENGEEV
METHOD NOTES: Isolated rat seminal vesicle assay: inhibition of norepinephrine induced contractions
Assay type: cell-based
ASSAY SETUP: relative to prazosin; test compound 10 nanograms/ml; shift of norepinephrine ED50, rat seminal vesicle
Structures can show the parent of a compound that is named as a salt.
Think of 0.2 as a floor: if α-Adrenergic Receptor Blocking Effect In Vitro Activity Ratio stands on it or above, it is 1; beneath it, 0.

Illustrative cases are given below, each with its answer.
[
  {
    "COMPOUND": "COc1cc2nc(N3CCN(C(=O)c4scnc4C)CC3)nc(N)c2cc1OC.Cl [Example 16]",
    "TARGET OF ASSAY": "α-adrenergic receptor (Rattus norvegicus, UniProt P43140)",
    "CLASS LABEL": 1
  },
  {
    "COMPOUND": "COc1cc2nc(N3CCN(C(=O)c4cscn4)CC3)nc(N)c2cc1OC [Example 12]",
    "TARGET OF ASSAY": "α-adrenergic receptor (Rattus norvegicus, UniProt P43140)",
    "CLASS LABEL": 0
  },
  {
    "COMPOUND": "COc1cc2nc(N3CCN(C(=O)c4ocnc4C)CC3)nc(N)c2cc1OC.Cl [Example 9]",
    "TARGET OF ASSAY": "α-adrenergic receptor (Rattus norvegicus, UniProt P43140)",
    "CLASS LABEL": 0
  },
  {
    "COMPOUND": "COc1cc2nc(N3CCN(C(=O)c4coc(C)n4)CC3)nc(N)c2cc1OC.Cl [Example 8]",
    "TARGET OF ASSAY": "α-adrenergic receptor (Rattus norvegicus, UniProt P43140)",
    "CLASS LABEL": 0
  },
  {
    "COMPOUND": "COc1cc2nc(N3CCN(C(=O)c4csc(C)n4)CC3)nc(N)c2cc1OC [Example 13, Hydrochloride]",
    "TARGET OF ASSAY": "α-adrenergic receptor (Rattus norvegicus, UniProt P43140)",
    "CLASS LABEL": 0
  },
  {
    "COMPOUND": "COc1cc2nc(N3CCN(C(=O)c4cc(C)no4)CC3)nc(N)c2cc1OC.Cl [Example 6]",
    "TARGET OF ASSAY": "α-adrenergic receptor (Rattus norvegicus, UniProt P43140)",
    "CLASS LABEL": 1
  },
  {
    "COMPOUND": "COc1cc2nc(N3CCN(C(=O)c4cnc(C)s4)CC3)nc(N)c2cc1OC [Example 15, Hydrochloride]",
    "TARGET OF ASSAY": "α-adrenergic receptor (Rattus norvegicus, UniProt P43140)",
    "CLASS LABEL": 0
  },
  {
    "COMPOUND": "COc1cc2nc(N3CCN(C(=O)c4conc4C)CC3)nc(N)c2cc1OC.Cl [Example 5]",
    "TARGET OF ASSAY": "α-adrenergic receptor (Rattus norvegicus, UniProt P43140)",
    "CLASS LABEL": 1
  },
  {
    "COMPOUND": "COc1cc2nc(N3CCN(C(=O)c4cnoc4)CC3)nc(N)c2cc1OC.Cl [Example 3]",
    "TARGET OF ASSAY": "α-adrenergic receptor (Rattus norvegicus, UniProt P43140)",
    "CLASS LABEL": 1
  },
  {
    "COMPOUND": "COc1cc2nc(N3CCN(C(=O)c4cncs4)CC3)nc(N)c2cc1OC.Cl [Example 14]",
    "TARGET OF ASSAY": "α-adrenergic receptor (Rattus norvegicus, UniProt P43140)",
    "CLASS LABEL": 0
  }
]

Problem: Please tell me: is the compound COc1cc2nc(N3CCN(C(=O)c4ccno4)CC3)nc(N)c2cc1OC [Example 1, Hydrochloride] at or over 0.2 in terms of α-Adrenergic Receptor Blocking Effect In Vitro Activity Ratio?
Result: 0

Problem: Please tell me: is the compound COc1cc2nc(N3CCN(C(=O)c4cocn4)CC3)nc(N)c2cc1OC.Cl [Example 7] at or over 0.2 in terms of α-Adrenergic Receptor Blocking Effect In Vitro Activity Ratio?
Result: 1
